# PROTOCOL_DESCRIPTION: self-splicing fitness, log relative to wild type (ln ratio); higher = more splicing; Tetrahymena group I intron in knt gene, E. coli kanamycin selection, DiMSum; sequences stand for … in CUCUCU…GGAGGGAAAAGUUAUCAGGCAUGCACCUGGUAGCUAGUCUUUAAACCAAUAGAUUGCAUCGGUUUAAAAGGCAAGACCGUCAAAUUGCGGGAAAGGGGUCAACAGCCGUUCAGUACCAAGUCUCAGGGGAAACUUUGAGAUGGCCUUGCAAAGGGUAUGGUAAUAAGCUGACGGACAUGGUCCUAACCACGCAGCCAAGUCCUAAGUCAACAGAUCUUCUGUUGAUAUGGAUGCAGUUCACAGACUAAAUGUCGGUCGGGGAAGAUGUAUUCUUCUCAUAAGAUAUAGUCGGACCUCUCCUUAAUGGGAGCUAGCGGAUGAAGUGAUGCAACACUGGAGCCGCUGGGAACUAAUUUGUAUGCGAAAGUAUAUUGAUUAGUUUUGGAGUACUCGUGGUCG;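 also: selection with 25 µg/mL kanamycin versus none on LB agar overnight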
# CONDITION_INFO: 37 °C
READOUT_NAME: self-splicing fitness (ln)

Item: GAGCAGCAAUAUUACGACGU | self-splicing fitness (ln): -0.812

self-splicing fitness (ln) recorded for this sequence, AACAAGCAAUAUUACGGAUG , is -2.37

Short answer for UCGCAGCAAUAUUACGGGGG : self-splicing fitness (ln) was -1.86

// self-splicing fitness (ln) value for UCCCAGCAAUAUUACGGUCC : -1.26

Note to self: self-splicing fitness (ln) recorded for UUGCAGCAAUAUUACGCCGG was -0.103

Entry under test: GCGCAGCAAUAUUACGUGAA . Its self-splicing fitness (ln) was 0.149

Recorded self-splicing fitness (ln) (sequence ACGAAGCAAUAUUACGUGGU ): -2.95

Lab note: measured self-splicing fitness (ln) of AGUGAGCAAUAUUACGUUCG was -2.22

// UGAAAGCAAUAUUACGAGUG : self-splicing fitness (ln) value = 0.0623

# sequence GGAAAGCAAUAUUACGCCAU ; its self-splicing fitness (ln) = -0.946

Form: sequence = CGUCAGCAAUAUUACGGGAA ; self-splicing fitness (ln) = -1.18

self-splicing fitness (ln) reported for this sequence AGGGAGCAAUAUUACGAGUA : -1.76

The reported value for GCGUAGCAAUAUUACGUGUC in terms of self-splicing fitness (ln) is -2.06

The value of self-splicing fitness (ln) measured for the sequence CGUAAGCAAUAUUACGCCUU turned out to be -2.05

The reported value for CCUAAGCAAUAUUACGUCAG in terms of self-splicing fitness (ln) is -0.812

Notebook: CAACAGCAAUAUUACGUCCC , self-splicing fitness (ln) read as -1.46

----------
# PROTOCOL_DESCRIPTION: self-splicing fitness, log relative to wild type (ln ratio); higher = more splicing; Tetrahymena group I intron in knt gene, E. coli kanamycin selection, DiMSum; sequences stand for … in CUCUCU…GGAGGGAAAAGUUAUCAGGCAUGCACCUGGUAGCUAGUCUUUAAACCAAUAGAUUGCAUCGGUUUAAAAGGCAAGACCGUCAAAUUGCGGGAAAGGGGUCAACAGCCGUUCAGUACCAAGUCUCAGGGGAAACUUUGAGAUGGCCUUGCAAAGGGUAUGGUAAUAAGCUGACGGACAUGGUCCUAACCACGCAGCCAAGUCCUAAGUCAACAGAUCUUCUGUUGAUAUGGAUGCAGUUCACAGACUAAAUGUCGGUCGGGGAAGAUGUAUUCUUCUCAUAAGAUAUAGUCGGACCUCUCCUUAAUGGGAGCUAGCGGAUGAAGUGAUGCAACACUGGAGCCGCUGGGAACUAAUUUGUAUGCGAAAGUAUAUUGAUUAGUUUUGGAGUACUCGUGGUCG
# CONDITION_INFO: 30 °C
Criterion: self-splicing fitness (ln) meeting or surpassing -2. Met: criterion met. Not met: criterion not met.

For this sequence, is measured self-splicing fitness (ln) -2 or higher? CCUUAGCAAUAUUACGGCUG
criterion not met

Hi, just wondering whether UUACAGCAAUAUUACGCGGA shows self-splicing fitness (ln) of -2 or higher.
criterion met

For this sequence, is measured self-splicing fitness (ln) -2 or higher? UCGUAGCAAUAUUACGAUGU
criterion not met

Is self-splicing fitness (ln) at least -2? Consider AUCUAGCAAUAUUACGCAUG
criterion met

Hi team, for AAGGAGCAAUAUUACGAAGG , is the recorded self-splicing fitness (ln) at or above -2?
criterion not met

# check: self-splicing fitness (ln) of AGCCAGCAAUAUUACGCGCA is greater than or equal to -2
criterion met

Given AGUAAGCAAUAUUACGCUAG , state whether its self-splicing fitness (ln) is at least -2.
criterion not met

Check the entry AUCCAGCAAUAUUACGAUAG : does self-splicing fitness (ln) equal or exceed -2?
criterion not met

Is self-splicing fitness (ln) at least -2? Consider GAAGAGCAAUAUUACGGAUG
criterion not met

Identify whether the reported self-splicing fitness (ln) of the following sequence is -2 or greater: UAGCAGCAAUAUUACGGUAG
criterion met

Test whether the sequence CGGCAGCAAUAUUACGAUAG records self-splicing fitness (ln) of -2 or higher.
criterion met

# check: self-splicing fitness (ln) of GCCAAGCAAUAUUACGCGGU is greater than or equal to -2
criterion not met

API: above_or_equal(metric=self-splicing fitness (ln), cutoff=-2) for item GAGGAGCAAUAUUACGACAG
criterion met

Given the entry ACCGAGCAAUAUUACGAACC , answer whether its self-splicing fitness (ln) meets or surpasses -2.
criterion not met

Does AGCGAGCAAUAUUACGGAGA have a reported self-splicing fitness (ln) of at least -2?
criterion not met

Tell me whether self-splicing fitness (ln) is at least -2 here: CUCUAGCAAUAUUACGUGCA
criterion not met

self-splicing fitness (ln) >= -2 for AGGCAGCAAUAUUACGAAUG ?
criterion met

Is the recorded value of self-splicing fitness (ln) equal to or greater than -2 for this sequence? CUAAAGCAAUAUUACGGUAU
criterion not met

For this sequence, is measured self-splicing fitness (ln) -2 or higher? CACAAGCAAUAUUACGGGAA
criterion not met

State whether the measured self-splicing fitness (ln) reaches -2, counting equality as reaching it, for UUUCAGCAAUAUUACGCGGU
criterion not met

Exam item: decide whether the reported self-splicing fitness (ln) for UCCGAGCAAUAUUACGAAAU is at least -2.
criterion not met

Say whether UCGGAGCAAUAUUACGACUU shows self-splicing fitness (ln) of -2 or more.
criterion not met

Is the recorded value of self-splicing fitness (ln) equal to or greater than -2 for this sequence? UACAAGCAAUAUUACGGGCA
criterion met

Confirm if self-splicing fitness (ln) reported for the sequence GUCGAGCAAUAUUACGUGAG is -2 or above.
criterion met

Is it the case that CCAUAGCAAUAUUACGAUAC has self-splicing fitness (ln) reaching or exceeding -2?
criterion not met

Does the reported self-splicing fitness (ln) for CUAAAGCAAUAUUACGAUCA fall at or above the -2 mark?
criterion not met

Textbook exercise: given the entry AGACAGCAAUAUUACGCACG , state whether its self-splicing fitness (ln) is greater than or equal to -2.
criterion not met

Check if self-splicing fitness (ln) >= -2 (inclusive). Item: GGCGAGCAAUAUUACGGCUG
criterion met

Decide: is the reported value of self-splicing fitness (ln) for GCGCAGCAAUAUUACGGUAA equal to or greater than -2?
criterion met

Please check the record GCGUAGCAAUAUUACGCGCU and state if its self-splicing fitness (ln) is at or above -2.
criterion not met

Does the sequence AAAAAGCAAUAUUACGCUGA have recorded self-splicing fitness (ln) that is -2 or more?
criterion not met

// inclusive: self-splicing fitness (ln) at least -2? input: GGGCAGCAAUAUUACGCCGA
criterion met

Would you say CUAAAGCAAUAUUACGGGCG shows self-splicing fitness (ln) at minimum -2?
criterion met

For this sequence, is measured self-splicing fitness (ln) -2 or higher? UCAAAGCAAUAUUACGACAC
criterion not met

Identify whether the reported self-splicing fitness (ln) of the following sequence is -2 or greater: AUUGAGCAAUAUUACGAUCU
criterion met

Can UGAAAGCAAUAUUACGGUAA be said to have self-splicing fitness (ln) at or above -2?
criterion met

Kindly determine if self-splicing fitness (ln) recorded for GCUCAGCAAUAUUACGAGAG is above or exactly -2.
criterion met

Dear colleague, could you confirm whether GCAUAGCAAUAUUACGCAAG has self-splicing fitness (ln) at or above -2?
criterion not met

Hi, just wondering whether CUCCAGCAAUAUUACGCCUA shows self-splicing fitness (ln) of -2 or higher.
criterion not met

Quick check: does ACUCAGCAAUAUUACGAAAU have self-splicing fitness (ln) greater than or equal to -2?
criterion met

For this sequence, is measured self-splicing fitness (ln) -2 or higher? UUCGAGCAAUAUUACGGUAG
criterion not met

For this sequence, is measured self-splicing fitness (ln) -2 or higher? AGGGAGCAAUAUUACGAAAU
criterion not met

Does self-splicing fitness (ln) meet or surpass -2 for ACAUAGCAAUAUUACGGCCG ?
criterion met

Identify whether the reported self-splicing fitness (ln) of the following sequence is -2 or greater: ACACAGCAAUAUUACGCGAU
criterion not met

Given the entry UCCUAGCAAUAUUACGACUC , answer whether its self-splicing fitness (ln) meets or surpasses -2.
criterion not met

Answer whether self-splicing fitness (ln) of CAACAGCAAUAUUACGAAUG is greater than or equal to -2.
criterion met

Please tell me: is the sequence CAAGAGCAAUAUUACGCAAA at or over -2 in terms of self-splicing fitness (ln)?
criterion not met

# bool: self-splicing fitness (ln) of GAACAGCAAUAUUACGGCCC >= -2
criterion met

Item ACAGAGCAAUAUUACGUUCA with self-splicing fitness (ln) of -2 or above?
criterion not met

Reported self-splicing fitness (ln) reaches at least -2 for AGAUAGCAAUAUUACGCCGC ?
criterion not met

For this sequence, is measured self-splicing fitness (ln) -2 or higher? AUGAAGCAAUAUUACGGUUG
criterion met

Reported self-splicing fitness (ln) reaches at least -2 for ACUUAGCAAUAUUACGCAUG ?
criterion met

Decide: is the reported value of self-splicing fitness (ln) for ACGCAGCAAUAUUACGAUCC equal to or greater than -2?
criterion not met

Determine whether this sequence has self-splicing fitness (ln) no lower than -2: GCGUAGCAAUAUUACGGUAG
criterion not met

Evaluate AAUCAGCAAUAUUACGGAUG : self-splicing fitness (ln) at minimum -2?
criterion met

Would you say AAGGAGCAAUAUUACGACAU shows self-splicing fitness (ln) at minimum -2?
criterion not met

self-splicing fitness (ln) >= -2 for GGCAAGCAAUAUUACGAGAA ?
criterion met

Entry UGCGAGCAAUAUUACGCCGG : is its self-splicing fitness (ln) no less than -2?
criterion not met

Determine whether measured self-splicing fitness (ln) meets or exceeds -2 for ACUGAGCAAUAUUACGGAAA
criterion not met

Does self-splicing fitness (ln) meet or surpass -2 for GUAAAGCAAUAUUACGAGUG ?
criterion met

Answer whether self-splicing fitness (ln) of CAAUAGCAAUAUUACGCGUC is greater than or equal to -2.
criterion not met

Check the entry UUUGAGCAAUAUUACGGCAC : does self-splicing fitness (ln) equal or exceed -2?
criterion not met

Reported self-splicing fitness (ln) at or above -2? UGACAGCAAUAUUACGACAC
criterion met

In plain terms: is recorded self-splicing fitness (ln) at least -2 for UCAAAGCAAUAUUACGUAAC ?
criterion not met

Is the recorded value of self-splicing fitness (ln) equal to or greater than -2 for this sequence? ACAAAGCAAUAUUACGUCAA
criterion not met
